# credit: ChEMBL document CHEMBL3616462

- Experiment Notes: Cytotoxicity against Influenza A virus (A/California/07/2009(H1N1)) infected MDCK cells
- Assay type: cell-based, Canis lupus familiaris
- Assay Context: dog
Measured Parameter: log10(CC50) (log10 of the value in µM)
In plain terms, each number is the log10 of measured CC50 in µM.

// returns reported log10(CC50) for input COC(=O)[C@]1(C)CCC[C@]2(C)[C@H]3C[C@H]4C(C(C)C)=C[C@]3(CC[C@H]21)[C@@H]1C(=O)C=CC(=O)[C@@H]14 0.74

Give the measured log10(CC50) of COC(=O)[C@]1(C)CCC[C@]2(C)[C@H]3C[C@H]4C(C(C)C)=C[C@]3(CC[C@H]21)[C@@H]1/C(=N/O)CCC2(OCCO2)[C@@H]14 . 0.46

Requested field: log10(CC50). Item: CC(C)C1=C[C@@]23CC[C@H]4[C@](C)(COC(=O)/C=C/c5ccccc5)CCC[C@]4(C)[C@H]2C[C@@H]1[C@@H]1[C@H]3[C@@H](OC(=O)/C=C/c2ccccc2)CC[C@@H]1OC(=O)/C=C/c1ccccc1 1.54

Tell me the measured log10(CC50) of COC(=O)[C@H](C)NC(=O)[C@]1(C)CCC[C@]2(C)[C@H]3C[C@H]4C(C(C)C)=C[C@]3(CC[C@H]21)[C@@H]1C(=O)OC(=O)[C@@H]14 , please. 1.53

Please give the measured log10(CC50) for this compound: COC(=O)[C@]1(C)CCC[C@]2(C)[C@H]3C[C@H]4C(C(C)C)=C[C@]3(CC[C@H]21)[C@@H]1C(=O)[C@H]2O[C@H]2C(=O)[C@@H]14 1.53

Query: log10(CC50); subject: COC(=O)[C@]12C=CC(=O)[C@H]1[C@@]13C=C(C(C)C)[C@@H]2C[C@@H]1[C@@]1(C)CCC[C@@](C)(C(=O)OC)[C@@H]1CC3 0.58

So what does the record say about log10(CC50) for COC(=O)[C@]1(C)CCC[C@]2(C)[C@H]3CC4C(C(C)C)=C[C@]3(CC[C@H]21)[C@@H]1NC(=O)CC[C@H](O)[C@H]41 ? 1.52

Give its log10(CC50) value. Item: COC(=O)[C@]1(C)CCC[C@]2(C)[C@H]3C[C@H]4C(C(C)C)=C[C@]3(CC[C@H]21)[C@@H]1C(=O)CCC2(OCCO2)[C@@H]14 1.53

###

Hi there, I'd appreciate the recorded CC50 for every entry that follows.
- Experiment Notes: Cytotoxicity against Influenza A virus (A/Brisbane/10/2007(H3N2)) infected MDCK cells
- Format: cell-based, Canis lupus familiaris
- Assay Context: dog
Report only the number, with the unit µM understood.

Endpoint output: CC50 of CC(C)C1=C[C@@]23CC[C@@H]4[C@](C)(CCC[C@@]4(C)C(=O)O)[C@H]2C[C@@H]1[C@H]1C(=O)C=CC(=O)[C@H]13 . Value? 27

Bench note: what CC50 did COC(=O)[C@]12C=CC(=O)[C@H]1[C@@]13C=C(C(C)C)[C@@H]2C[C@@H]1[C@@]1(C)CCC[C@@](C)(C(=O)OC)[C@@H]1CC3 show? 3.9

Any idea what CC50 was measured for CC(C)C1=C[C@@]23CC[C@H]4[C@](C)(COC(=O)/C=C/c5ccccc5)CCC[C@]4(C)[C@H]2C[C@@H]1[C@@H]1[C@H]3[C@@H](OC(=O)/C=C/c2ccccc2)CC[C@@H]1OC(=O)/C=C/c1ccccc1 ? 33

Fill blank: measured CC50 of the compound COC(=O)[C@]1(C)CCC[C@]2(C)[C@H]3C[C@H]4C(C(C)C)=C[C@]3(CC[C@H]21)[C@@H]1C(=O)CCC2(OCCO2)[C@@H]14 is ____. 26

For the compound shown here, COC(=O)[C@]1(C)CCC[C@]2(C)[C@H]3C[C@H]4C(C(C)C)=C[C@]3(CC[C@H]21)[C@H]1[C@@H]4[C@@H](OC(=O)c2cccnc2)CC[C@@H]1OC(=O)c1cccnc1 , give the reported CC50. 4.9

Consider the compound COC(=O)[C@]1(C)CCC[C@]2(C)[C@H]3C[C@H]4C(C(C)C)=C[C@]3(CC[C@H]21)[C@@H]1C(=O)C=CC(=O)[C@@H]14 and give its measured CC50. 3.9

Which measured CC50 value corresponds to COC(=O)[C@]1(C)CCC[C@]2(C)[C@H]3C[C@H]4C(C(C)C)=C[C@]3(CC[C@H]21)[C@@H]1/C(=N/O)CC[C@H](O)[C@@H]14 ? 1.6

Would you kindly share the measured CC50 for COC(=O)[C@]1(C)CCC[C@]2(C)[C@H]3C[C@H]4C(C(C)C)=C[C@]3(CC[C@H]21)[C@@H]1C(=O)OC(=O)[C@@H]14 ? 33

Param item = COC(=O)[C@H](C)NC(=O)[C@]1(C)CCC[C@]2(C)[C@H]3C[C@H]4C(C(C)C)=C[C@]3(CC[C@H]21)[C@@H]1C(=O)OC(=O)[C@@H]14 ; retrieve measured CC50. 33

Please report the recorded CC50 for COC(=O)[C@]12CCC(=O)[C@H]1[C@@]13C=C(C(C)C)[C@@H]2C[C@@H]1[C@@]1(C)CCC[C@@](C)(C(=O)OC)[C@@H]1CC3 . 33

###

Task for the reader: assign each of the following molecules its reported EC50.
- Experiment Notes: Antiviral activity against Influenza A virus (A/Viet Nam/1203/2004(H5N1)) infected in MDCK cells
- Format: functional, cell-based

Any idea what EC50 was measured for COC(=O)[C@H](CCSC)NC(=O)[C@]1(C)CCC[C@]2(C)[C@H]3C[C@H]4C(C(C)C)=C[C@]3(CC[C@H]21)[C@@H]1C(=O)OC(=O)[C@@H]14 ? 32 µM

Reported EC50 for COC(=O)[C@]1(C)CCC[C@]2(C)[C@H]3C[C@H]4C(C(C)C)=C[C@]3(CC[C@H]21)[C@@H]1C(=O)CC[C@H](OCCC#N)[C@@H]14 : what is it? > 31 µM

Fill in the blank: the reported EC50 of COC(=O)[C@]1(C)CCC[C@]2(C)[C@H]3C[C@H]4C(C(C)C)=C[C@]3(CC[C@H]21)[C@@H]1/C(=N/O)CCC(=O)[C@@H]14 is ____. > 1.7 µM

Would you mind telling me what EC50 value was observed for COC(=O)[C@]12CCC(=O)[C@H]1[C@@]13C=C(C(C)C)[C@@H]2C[C@@H]1[C@@]1(C)CCC[C@@](C)(C(=O)OC)[C@@H]1CC3 ? 32 µM

# EC50 lookup, item COC(=O)[C@]1(C)CCC[C@]2(C)[C@H]3C[C@@H]4[C@@H]5[C@H]6[C@H](OC(C)=O)CC[C@@H]5OC4(C(C)C)C[C@]63CC[C@H]21 > 12 µM

# input molecule: COC(=O)[C@]1(C)CCC[C@]2(C)[C@H]3C[C@@H]4[C@H]5[C@@H]6CCC(=O)[C@H]5[C@@]3(CC[C@H]21)CC4(C(C)C)O6 ; wanted: its EC50 > 100 µM

I'd like to know its EC50. The molecule in question is COC(=O)[C@]1(C)CCC[C@]2(C)[C@H]3C[C@H]4C(C(C)C)=C[C@]3(CC[C@H]21)[C@@H]1C(=O)C=CC(=O)[C@@H]14 > 2.9 µM

###

For each record, write down the corresponding CC50.
- Experiment Notes: Cytotoxicity against Influenza A virus (A/Viet Nam/1203/2004(H5N1)) infected MDCK cells
- Assay type: cell-based, Canis lupus familiaris
- Assay Context: dog
Could you give me the number in µM? Just the number is fine.

Name the reported CC50 value associated with the compound COC(=O)[C@]12C=CC(=O)[C@H]1[C@@]13C=C(C(C)C)[C@@H]2C[C@@H]1[C@@]1(C)CCC[C@@](C)(C(=O)OC)[C@@H]1CC3 13

Fill blank: measured CC50 of the compound COC(=O)[C@]12CC[C@H](O)[C@H]1[C@@]13C=C(C(C)C)[C@@H]2C[C@@H]1[C@@]1(C)CCC[C@@](C)(C(=O)OC)[C@@H]1CC3 is ____. 3.2

Which CC50 is reported for this compound? COC(=O)[C@]12CCC(=O)[C@H]1[C@@]13C=C(C(C)C)[C@@H]2C[C@@H]1[C@@]1(C)CCC[C@@](C)(C(=O)OC)[C@@H]1CC3 32

Need CC50, item COC(=O)[C@]1(C)CCC[C@]2(C)[C@H]3C[C@H]4C(C(C)C)=C[C@]3(CC[C@H]21)[C@@H]1C(=O)CC[C@H](OC(=O)c2cccnc2)[C@@H]14 3.2

Given the compound COC(=O)[C@H](CCSC)NC(=O)[C@]1(C)CCC[C@]2(C)[C@H]3C[C@H]4C(C(C)C)=C[C@]3(CC[C@H]21)[C@@H]1C(=O)OC(=O)[C@@H]14 , what is its reported CC50? 32
